TARGET ENTITY: AP-MK, recombinant protein having alkaline phosphatase (AP) fused to the N-terminal of aa23-121 of MK (human) (UniProt P21741)
Sequence (P21741 23-143, form in doubt): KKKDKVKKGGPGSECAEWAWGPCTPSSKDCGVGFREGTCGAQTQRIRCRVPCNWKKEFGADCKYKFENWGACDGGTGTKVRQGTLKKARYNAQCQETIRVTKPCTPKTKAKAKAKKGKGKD
METHOD: AP-MK binding inhibition assay on TNB1 cells; antibody 10 ug/mL
Overview of reported relative AP activity (% of wells with AP-MK alone) across a group of binders:
Response body: numeric value in %, unit text excluded.

Example cases with answers are listed next.
* hFB54-matu020 affinity-improved antibody (IgG) (antibody, V domains shown) VH: EVQLVESGGGLVKPGGYQRLSCAASGFTFSSYAMSWVRQAPGKGLDWVATISSGGSYTYYPDSVKGRFTISRDNAKNSLYLQMNNLTDDDTAVYFCARHNYRYDEYYHAMDYWGQGTLVTVSS VL: ETTVTQSPSSLSASVGDRVTIRCITSIDIDDEMNWYQQKPGKGPKLLISEGNTLRPGVPSRFSSSGYGTDFTLTISSLQPEDFATYYCLQSDNLPYTFGQGTKLEIK | 26.8
* hFB54-matu054 affinity-improved antibody (IgG) (antibody, V domains shown) VH: EVQLVESGGGLVKPGGYLRLSCAASGFTFSSYAMSWVRQAPGKGLDWVATISSGGSYTYYPDSVKGRFTISRDNTKNTLYLQMNSLTDDDTAVYFCARHNYRYDEYYYAMDYWGQGTLVTVSS VL: ETTVTQSPSSLSASVGDRVTIRCITSIDIEDEMNWYQQKPGKGPKLLISEGNTLRPGVPSRFSSSGYGTDFTLTISSLQPEDFATYYCLQSDNLPYTFGQGTKLEIK | 33.5

Proceeding to the next binder to report its relative AP activity (% of wells with AP-MK alone).
Look at this binder and give its reported relative AP activity (% of wells with AP-MK alone). hFB54-matu024 affinity-improved antibody (IgG) (antibody, V domains shown) VH: EVQLVESGGGLVKPGGYLRLSCAASGFTFSSYAMSWVRQAPGKGLDWVATISSGGSYTYYPDSVKGRFTISRDNAKNSLYLQMNSLTDDDTAVYFCARHNYRYGEYYYAMDYWGQGTLVTVSS VL: ETTVTQSPSSLSASVGDRVTIRCITSIDIDDEMNWYQQKSGKGPKLLISEGNTLRPGVPSRFSSSGYGTDFTLTISSLQPEDFATYYCLQSDNLPYTFGQGTKLEIK
22.7
